study target: T1, AAV9
T1 construct: also called adeno-associated virus serotype 9
assay notes: SPR, AAV on CM5 chip;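 further: surface plasmon resonance with AAV amine-coupled to the chip as ligand, nanobodies injected as analyte over a concentration series, rate constants and affinity fitted from binding curves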
Exercise: for every item that follows, state its recorded koff.
Give bare numbers, in s⁻¹.

binder	result unit	koff
A4-003 (VHH) VHH: VQLQESGGGLVQPGGSLRLSCVASGRSFSINTMGWYRQAPGKQRELVAAVTRGGSTNYAGSVKGRFTISRDNAKNTVYLQMNSLRPEDTAVYYCHIDEVRQSSWTTSNIWGQGTQVTVSS	s⁻¹	0.00152
A4-016 (VHH) VHH: VQLQESGGGLVQPGGSLRLSCAASGSIFSINLMGWYRQAPGKQRELVATITPGGNTNYAGSVKGRFTISRDNAKNTVYLQMNSLRPEDTAVYYCHVDEVRQSSWTTSNLWGQGTQVTVSS	s⁻¹	0.00047
A4-017 (VHH) VHH: VQLQESGGGLVQPGGSLRLSCAASGSIFSINLMGWYRQAPGKQRELVATITRGGNTNYAGSVKGRFTISRDNAKNTVYLQMNSLRPEDTAVYYCHVDEVRQSSWTTSNLWGQGTQVTVSS	s⁻¹	4e-05

Next:
Task: Tell me the measured koff of A4-009 (VHH) VHH: VQLQESGGGLAQPGGSLRLSCAASGSRFSINTMGWYRQAPGKQREFVAAVTRGGSTNYAGSVKGRFTISRDNAKNTVYLQMNTLRPEDTAVYYCHVDEVRQSSWTTSNIWGQGTQVTVSS , please.
Result: 0.0139

Hey, just so you know, these numbers are from patent US20260193326A1.
